System: HCT116 CRC cell line
assay: SRB proliferation assay, 72 h
Type: cell-based, human
recorded conditions: Homo sapiens, HCT-116; HCT116 stably transfected with MT2A shRNA; read-out: IC50, proliferation, OSI-906 (SRB) after MT2A shRNA knockdown
readout type: pIC50
Would you please state pIC50, meaning minus log10 of the concentration in mol/L, as a bare number?

// lookup pIC50 for C[C@]1(O)C[C@@H](c2nc(-c3ccc4ccc(-c5ccccc5)nc4c3)c3c(N)nccn32)C1
5.30

====

Tested on: SW1417 CRC cell line
assay: SRB proliferation assay, 72 h
Format: cell-based
recorded conditions: Homo sapiens, 72 hours, read-out: IC50, proliferation, OSI-906 (SRB)
readout type: IC50

// lookup IC50 for C[C@]1(O)C[C@@H](c2nc(-c3ccc4ccc(-c5ccccc5)nc4c3)c3c(N)nccn32)C1 [OSI-906]
> 5 µM
